Recorded values, source patent US20230265151A1.

Answer each item with its documented cAMP EC50.
System Tested: human glucagon-like peptide-1 (GLP-1) receptor (human, UniProt P43220 24-463)
Assay Text: cell-based or functional assay
Answers are plain numbers, in nM.

Binder	Unit Abbreviation	Obs Value
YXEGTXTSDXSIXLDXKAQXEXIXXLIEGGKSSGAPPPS (Aib2, αMeF6, 4Pal10, αMeL13, Orn16, K17(Z), Aib20, αMeF22, D-Glu24, αMeF25, K31(Z), C-terminal NH2; Z = AEEA2-(γ-Glu)-CO-(CH2)10-CH3) [Example 174]	nM	0.33
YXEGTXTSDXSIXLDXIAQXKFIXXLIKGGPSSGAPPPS (Aib2, αMeF(2F)6, 4Pal10, αMeL13, Orn16, Aib20, K21(Z), D-Glu24, αMeY25, K28(Z), C-terminal NH2; Z = AEEA2-CO-(CH2)12-CO2H) [Example 222]	nM	0.518
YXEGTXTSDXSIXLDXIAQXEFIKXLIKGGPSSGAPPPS (Aib2, αMeF(2F)6, hTyr10, αMeL13, Orn16, Aib20, K24(Z), αMeY25, K28(Z), C-terminal NH2; Z = AEEA2-(γ-Glu)-CO-(CH2)12-CO2H) [Example 270]	nM	0.551

Item under review: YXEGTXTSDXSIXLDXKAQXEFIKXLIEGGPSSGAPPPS (Aib2, αMeF(2F)6, 4Pal10, αMeL13, Orn16, K17(Z), Aib20, K24(Z), αMeY25, C-terminal NH2; Z = AEEA2-(εK)-CO-(CH2)12-CO2H) [Example 160] . Reported cAMP EC50?
0.228
